molecular target: serotonin transporter (SERT) (Homo sapiens); assay: Serotonin reuptake inhibition, [3H]-5-HT, cells transfected with 5-HT transporter cDNA; conditions: compound 1 μM; relative to control without compound (100%); lower value = stronger inhibition
Sequence (P31645 whole entry, species assumed): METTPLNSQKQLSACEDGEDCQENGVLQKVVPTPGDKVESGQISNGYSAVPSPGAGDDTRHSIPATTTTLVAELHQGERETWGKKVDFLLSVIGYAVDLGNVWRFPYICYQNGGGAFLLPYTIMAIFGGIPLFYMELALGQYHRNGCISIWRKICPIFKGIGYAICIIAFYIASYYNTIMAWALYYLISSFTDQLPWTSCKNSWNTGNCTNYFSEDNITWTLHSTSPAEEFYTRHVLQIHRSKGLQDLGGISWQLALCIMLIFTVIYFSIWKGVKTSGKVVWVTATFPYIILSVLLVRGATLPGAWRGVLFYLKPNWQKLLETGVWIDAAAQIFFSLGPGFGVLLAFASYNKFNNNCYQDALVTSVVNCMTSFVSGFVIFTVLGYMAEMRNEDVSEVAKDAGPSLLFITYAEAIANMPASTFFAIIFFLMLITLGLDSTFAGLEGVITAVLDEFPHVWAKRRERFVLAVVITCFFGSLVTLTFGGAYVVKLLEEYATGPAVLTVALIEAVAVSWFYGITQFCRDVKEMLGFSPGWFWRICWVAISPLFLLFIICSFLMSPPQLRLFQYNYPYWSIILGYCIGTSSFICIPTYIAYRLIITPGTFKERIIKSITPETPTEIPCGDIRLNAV
Exercise: state measured Triple reuptake inhibition (Ratio %) SERT for each of the compounds provided.
Provide a numeric answer, followed by its unit.

Prompt: Quick one: Triple reuptake inhibition (Ratio %) SERT of Fc1ccc2[nH]c(-c3nnc(CN4CCN(Cc5ccccc5)CC4)[nH]3)cc2c1 ?
Response: 91.98%

Prompt: // next record c1ccc(CC2CCN(Cc3nnc(-c4cc5ccccc5s4)[nH]3)CC2)cc1
Response: 88.78%

Prompt: // next record c1ccc(CC2CCN(Cc3nnc(-c4cc5ccccc5o4)[nH]3)CC2)cc1
Response: 73.17%

Prompt: // next record Clc1cccc(CC2CCN(Cc3nnc(-c4cc5ccccc5[nH]4)[nH]3)CC2)c1
Response: 88.65%

Prompt: // next record c1ccc(CC2CCN(Cc3nnc(-c4ccccc4)[nH]3)CC2)cc1
Response: 95.15%

###

molecular target: UniProtKB Q01959; test: Dopamine reuptake inhibition, [3H]-DA, HEK-293 cells transfected with dopamine transporter cDNA
Sequence (Q01959 whole entry, species assumed): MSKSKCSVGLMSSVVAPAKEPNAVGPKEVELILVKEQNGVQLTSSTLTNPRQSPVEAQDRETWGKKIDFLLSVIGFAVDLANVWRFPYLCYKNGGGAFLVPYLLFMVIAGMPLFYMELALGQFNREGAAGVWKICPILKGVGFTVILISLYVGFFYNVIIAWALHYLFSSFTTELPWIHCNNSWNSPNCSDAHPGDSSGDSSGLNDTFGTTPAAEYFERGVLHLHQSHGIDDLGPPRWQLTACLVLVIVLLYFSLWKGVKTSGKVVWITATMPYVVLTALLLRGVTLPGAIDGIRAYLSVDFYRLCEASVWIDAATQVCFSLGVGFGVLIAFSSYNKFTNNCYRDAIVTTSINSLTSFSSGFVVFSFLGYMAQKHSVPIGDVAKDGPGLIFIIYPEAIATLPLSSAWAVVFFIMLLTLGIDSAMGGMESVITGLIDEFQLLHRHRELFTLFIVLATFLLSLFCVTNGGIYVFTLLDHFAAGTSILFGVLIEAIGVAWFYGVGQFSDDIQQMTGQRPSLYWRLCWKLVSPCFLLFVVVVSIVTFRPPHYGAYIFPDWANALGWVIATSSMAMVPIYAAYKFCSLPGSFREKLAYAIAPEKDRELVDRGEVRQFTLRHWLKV
Exercise: state measured pIC50 for each of the compounds provided.
pIC50 here is simply -log10 of the concentration when that concentration is written in mol/L.

Prompt: Quick one: pIC50 of Cc1ccc2c(-c3nnc(CN4CCC(Cc5ccccc5)CC4)[nH]3)c[nH]c2c1 [Example 38] ?
Response: 6.17

Prompt: // next record N#Cc1ccc(-c2nnc(CN3CCC(Cc4ccccc4)CC3)[nH]2)cc1 [Example 46]
Response: 6.69

Prompt: // next record Fc1ccc(-c2nnc(CN3CCC(Cc4ccccc4)CC3)[nH]2)cc1 [Example 47]
Response: 6.43

Prompt: // next record c1ccc(CC2CCN(Cc3nnc(-c4ccc5ccccc5c4)[nH]3)CC2)cc1 [Example 21]
Response: 6.59

Prompt: // next record c1ccc(CC2CCN(Cc3nnc(-c4ccc5c(c4)OCO5)[nH]3)CC2)cc1 [Example 27]
Response: 7.21

Prompt: // next record COC(=O)c1ccc(-c2nnc(CN3CCC(Cc4ccccc4)CC3)[nH]2)cc1N [Example 63]
Response: 6.66

Prompt: // next record COc1cccc2c(-c3nnc(CN4CCC(Cc5ccccc5)CC4)[nH]3)c[nH]c12 [Example 37]
Response: 6.46

Prompt: // next record COC(=O)c1ccc2[nH]c(-c3nnc(CN4CCC(Cc5ccccc5)CC4)[nH]3)cc2c1 [Example 20]
Response: 7.10

Prompt: // next record Oc1cc2cc(-c3nnc(CN4CCC(Cc5ccccc5)CC4)[nH]3)[nH]c2cc1O [Example 35]
Response: 6.20

###

target: norepinephrine transporter (NET) (Homo sapiens, UniProt P23975); assay: Norepinephrine reuptake inhibition, [3H]-NE, cells transfected with NE transporter cDNA; conditions: compound 1 μM; relative to control without compound (100%); lower value = stronger inhibition
Sequence (P23975 whole entry, species assumed): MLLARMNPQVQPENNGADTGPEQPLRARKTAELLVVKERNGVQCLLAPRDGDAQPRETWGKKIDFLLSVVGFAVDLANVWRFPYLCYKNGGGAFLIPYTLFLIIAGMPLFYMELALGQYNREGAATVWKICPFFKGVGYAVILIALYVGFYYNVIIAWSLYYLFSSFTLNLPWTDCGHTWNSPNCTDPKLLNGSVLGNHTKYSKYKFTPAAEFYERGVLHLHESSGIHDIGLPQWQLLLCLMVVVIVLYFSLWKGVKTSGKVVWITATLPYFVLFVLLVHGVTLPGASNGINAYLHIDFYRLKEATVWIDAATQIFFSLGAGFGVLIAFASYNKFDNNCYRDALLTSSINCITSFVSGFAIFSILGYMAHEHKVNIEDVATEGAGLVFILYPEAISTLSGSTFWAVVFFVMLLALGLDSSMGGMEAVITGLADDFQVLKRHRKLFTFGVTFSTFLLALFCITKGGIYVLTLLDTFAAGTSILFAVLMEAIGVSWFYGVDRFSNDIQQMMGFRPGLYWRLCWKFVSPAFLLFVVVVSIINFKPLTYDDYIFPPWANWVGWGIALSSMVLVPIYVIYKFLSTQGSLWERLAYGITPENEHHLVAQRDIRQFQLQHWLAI
Label scheme for Triple reuptake inhibition (Ratio %) NET: class 0 (below 40%), class 1 (40% to below 70%), class 2 (70% or more)

Prompt: Hello team, could you let me know which band the following molecule falls into: Clc1ccc2[nH]cc(-c3nnc(CN4CCC(Cc5ccccc5)CC4)[nH]3)c2c1
Response: class 2

Prompt: // next record Cc1ccc2[nH]c(-c3nnc(CN4CCC(Cc5ccccc5)CC4)[nH]3)cc2c1
Response: class 1

Prompt: // next record FC(F)(F)c1ccc2[nH]c(-c3nnc(CN4CCC(Cc5ccccc5)CC4)[nH]3)cc2c1
Response: class 2

Prompt: // next record Fc1ccc2[nH]c(-c3nnc(CN4CCC(c5c[nH]c6ccccc56)CC4)[nH]3)cc2c1
Response: class 2

Prompt: // next record Oc1cc2cc(-c3nnc(CN4CCC(Cc5ccccc5)CC4)[nH]3)[nH]c2cc1O
Response: class 1

Prompt: // next record O=C(O)c1ccc2[nH]c(-c3nnc(CN4CCC(Cc5ccccc5)CC4)[nH]3)cc2c1
Response: class 2

Prompt: // next record Clc1ccc2[nH]c(-c3nnc(CN4CCN(Cc5ccccc5)CC4)[nH]3)cc2c1
Response: class 1

Prompt: // next record COc1cc2cc(-c3nnc(CN4CCC(Cc5ccc(Cl)c(Cl)c5)CC4)[nH]3)[nH]c2cc1OC
Response: class 0

Prompt: // next record COc1ccc(-c2nnc(CN3CCC(Cc4ccccc4)CC3)[nH]2)cc1OC
Response: class 0

Prompt: // next record Fc1ccc2[nH]c(-c3nnc(CN4CCC(Cc5ccccc5)CC4)[nH]3)cc2c1
Response: class 0

Prompt: // next record Fc1ccc2[nH]c(-c3nnc(CN4CCC(Cc5ccc(Cl)c(Cl)c5)CC4)[nH]3)cc2c1
Response: class 1

Prompt: // next record COc1cccc2cc(-c3nnc(CN4CCC(Cc5ccccc5)CC4)[nH]3)[nH]c12
Response: class 0

Prompt: // next record Clc1ccc(CC2CCN(Cc3nnc(-c4cc5ccccc5[nH]4)[nH]3)CC2)cc1
Response: class 2

Prompt: // next record FC(F)(F)Oc1ccc(-c2nnc(CN3CCC(Cc4ccccc4)CC3)[nH]2)cc1
Response: class 1

Prompt: // next record Fc1ccc2[nH]c(-c3nnc(CN4CCN(Cc5ccccc5)CC4)[nH]3)cc2c1
Response: class 1

###

target: norepinephrine transporter (NET) (Homo sapiens, UniProt P23975); test: Norepinephrine reuptake inhibition, [3H]-NE, cells transfected with NE transporter cDNA
Exercise: state measured pIC50 for each of the compounds provided.
pIC50 here is simply -log10 of the concentration when that concentration is written in mol/L.

Prompt: # query: pIC50 | item COc1ccc(-c2nnc(CN3CCC(Cc4ccccc4)CC3)[nH]2)cc1OC | system: norepinephrine transporter (NET) (Homo sapiens, UniProt P23975)
Response: 6.46

Prompt: // next record c1ccc(CC2CCN(Cc3nnc(-c4ccc5ccccc5c4)[nH]3)CC2)cc1
Response: 6.21

Prompt: // next record COC(=O)c1cccc2c(-c3nnc(CN4CCC(Cc5ccccc5)CC4)[nH]3)c[nH]c12
Response: 6.01

Prompt: // next record Cc1ccc2c(-c3nnc(CN4CCC(Cc5ccccc5)CC4)[nH]3)c[nH]c2c1
Response: 6.44

Prompt: // next record c1ccc(CC2CCN(Cc3nnc(-c4c[nH]c5ccccc45)[nH]3)CC2)cc1
Response: 6.19
